- target-system: EmBioE (BioE)
- Construct: 6x His-tagged EmBioE
- test: SPR (Biacore, CM5 chip); supported by urea-PAGE inhibition of C18-ACP cleavage (Ki […])

| molecule | target-system | Kd |
| --- | --- | --- |
| C=CCn1c(SCC(=O)Nc2scc(-c3ccc(C)cc3)c2C(=O)OC)nnc1-c1ccc(N(C)C)cc1 [compound 466982, 466982] | EmBioE (BioE) | ~14.6 µM |

Data credit: paper PMC12915131
